Recorded compound max-min signal, one value per entry.
# System Tested: Voltage-dependent calcium channel gamma-2 subunit (Mus musculus) + Glutamate receptor 2 (Rattus norvegicus) (UniProt O88602+P19491)
# Sequence (O88602 whole entry, looked up): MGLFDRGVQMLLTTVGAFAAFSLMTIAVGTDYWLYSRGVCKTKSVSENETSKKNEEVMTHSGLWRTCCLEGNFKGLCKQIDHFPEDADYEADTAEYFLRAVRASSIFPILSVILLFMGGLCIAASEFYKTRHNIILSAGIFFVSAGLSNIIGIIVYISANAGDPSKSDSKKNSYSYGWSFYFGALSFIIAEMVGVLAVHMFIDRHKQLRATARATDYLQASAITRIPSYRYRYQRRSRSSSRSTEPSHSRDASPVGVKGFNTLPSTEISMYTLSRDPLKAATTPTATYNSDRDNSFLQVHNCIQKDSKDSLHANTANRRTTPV
# Sequence (P19491 whole entry, looked up): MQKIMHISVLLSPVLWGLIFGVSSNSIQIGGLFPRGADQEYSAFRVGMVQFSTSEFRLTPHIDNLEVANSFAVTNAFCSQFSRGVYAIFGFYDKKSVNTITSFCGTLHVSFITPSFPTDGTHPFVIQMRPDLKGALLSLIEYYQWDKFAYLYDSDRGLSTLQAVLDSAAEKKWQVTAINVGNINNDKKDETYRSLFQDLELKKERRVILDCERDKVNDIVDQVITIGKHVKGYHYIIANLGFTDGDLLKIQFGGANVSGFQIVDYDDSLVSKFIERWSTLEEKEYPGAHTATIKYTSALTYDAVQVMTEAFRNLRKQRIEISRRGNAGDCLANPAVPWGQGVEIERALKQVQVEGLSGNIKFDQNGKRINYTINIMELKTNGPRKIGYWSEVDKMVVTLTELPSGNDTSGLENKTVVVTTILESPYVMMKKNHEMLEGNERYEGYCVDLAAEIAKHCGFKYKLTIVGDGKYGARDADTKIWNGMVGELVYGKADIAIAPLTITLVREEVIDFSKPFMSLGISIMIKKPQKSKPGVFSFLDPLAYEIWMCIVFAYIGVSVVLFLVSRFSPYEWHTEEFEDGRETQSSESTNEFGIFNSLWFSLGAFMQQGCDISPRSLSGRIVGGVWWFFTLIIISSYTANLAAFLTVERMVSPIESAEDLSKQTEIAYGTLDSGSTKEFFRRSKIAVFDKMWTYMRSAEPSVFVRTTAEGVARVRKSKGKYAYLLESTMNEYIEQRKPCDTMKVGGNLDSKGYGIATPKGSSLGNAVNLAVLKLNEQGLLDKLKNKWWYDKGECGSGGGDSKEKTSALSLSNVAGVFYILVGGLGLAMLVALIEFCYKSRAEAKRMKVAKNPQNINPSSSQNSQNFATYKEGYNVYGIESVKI
# Method Description: modulators of GluA2-stargazin AMPA receptor complexes, primary screen, cell-based, membrane potential dye (AID 1259245)
# Run Conditions: HEK293 GluA2+stargazin, membrane potential dye (FDSS), glutamate EC50, at 30 µM, hits were called plate by plate, in both directions; compound-alone response (agonism)
Out of some 40,000 compounds screened, about 1,400 (3.5%) were called active. This excerpt belongs to a sample that is enriched for actives.
I only need the number, thanks.

compound=COc1cc([N+](=O)[O-])ccc1NC(=O)c1ccccc1NS(=O)(=O)c1ccccc1 endpoint_result=0.141
compound=CC(C)c1cc(NCCN2CCOCC2)n2ncc(-c3ccccc3)c2n1 endpoint_result=0.126
compound=Cc1ccc(-n2ccnc2N2CCN(CC(=O)Nc3ccc4c(c3)OCO4)CC2)cc1 endpoint_result=0.0402
compound="O=[N+]([O-])c1cccc(S(=O)(=O)NCC(c2cccs2)N2CCOCC2)c1 (configuration not stated)" endpoint_result=0.129
compound="Cc1ccc(S(=O)(=O)N2CCCCC2CCN)cc1 (configuration not stated)" endpoint_result=0.0595

## Task GET /values?readout=compound max-min signal&item= "COc1cc(Cl)ccc1C(=O)NC1(c2nc(-c3ccsc3)no2)CCCCC1"
## Result 0.0754

## Task Proceed to "O=S(=O)(NC1(c2nc(-c3ccsc3)no2)CCCCC1)c1ccccc1"
## Result 0.127

## Task Proceed to CC(=O)N1CCN(c2ccnc3c2c(=O)n(CC(=O)NCC2CCCO2)c(=O)n3C)CC1 (configuration not stated)
## Result 0.0945

## Task Proceed to "COC(=O)Cn1c(=O)c2c(nc3n(-c4ccccc4C)c(C)c(C)n23)n(C)c1=O"
## Result 0.0754

## Task Proceed to "CCOCCn1c(=O)c2c(nc3n2CCCN3c2ccc(Br)cc2)n(C)c1=O"
## Result 0.127

## Task Proceed to Cn1cccc1C(CNS(=O)(=O)c1ccc(F)cc1)N1CCOCC1 (configuration not stated)
## Result 0.0736

## Task Proceed to "Cc1cccc(Cn2c(=O)c3c(nc4n(-c5ccccc5O)c(C)c(C)n34)n(C)c2=O)c1"
## Result 0.11

====

Recorded compound max-min signal, one value per entry.
# System Tested: Voltage-dependent calcium channel gamma-2 subunit (Mus musculus) + Glutamate receptor 2 (Rattus norvegicus) (UniProt O88602+P19491)
# Method Description: modulators of GluA2-stargazin AMPA receptor complexes, primary screen, cell-based, membrane potential dye (AID 1259245)
# Run Conditions: HEK293 GluA2+stargazin, membrane potential dye (FDSS), glutamate EC50, at 30 µM, hits were called plate by plate, in both directions; compound-alone response (agonism)
The campaign covered roughly 40,000 compounds. About 1,400 (3.5%) were called active. This is one part of a sample in which actives are shown more often than they occur.
I only need the number, thanks.

Take a look at these entries with their results.
molecule=COc1ccc(/C=C2\Oc3c(ccc4c3CN(c3ccc(F)cc3)CO4)C2=O)c(OC)c1OC assay_readout="compound max-min signal" endpoint_result=0.103
molecule=COc1cccc2sc(N(Cc3ccco3)C(=O)CSCc3ccccc3)nc12 assay_readout="compound max-min signal" endpoint_result=0.0832
molecule=O=C(Cc1csc(NC(=O)c2ccc(=O)[nH]c2)n1)NCCC1=CCCCC1 assay_readout="compound max-min signal" endpoint_result=0.0625

## Task GET /values?readout=compound max-min signal&item= COc1ccc2sc(N(CC3CCCO3)C(=O)C3CCCC3)nc2c1 (stereo not given)
## Result 0.117

## Task Proceed to "CCCCc1ccc(-n2c(C)cn3c4c(=O)n(CC(=O)OC)c(=O)n(C)c4nc23)cc1"
## Result 0.103

## Task Proceed to "Cc1noc(C2CN(S(=O)(=O)c3ccc(Cl)cc3)C2)n1"
## Result 0.142

====

# System Tested: Voltage-dependent calcium channel gamma-2 subunit (Mus musculus) + Glutamate receptor 2 (Rattus norvegicus) (UniProt O88602+P19491)
# Method Description: modulators of GluA2-stargazin AMPA receptor complexes, primary screen, cell-based, membrane potential dye (AID 1259245)
# Run Conditions: HEK293 GluA2+stargazin, membrane potential dye (FDSS), glutamate EC50, at 30 µM, hits were called plate by plate, in both directions
Out of some 40,000 compounds screened, about 1,400 (3.5%) were called active.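 How the source made its calls: active means any of four per-well response measures lying three or more SD from its plate-wide compound average, in either direction; inactive means the rest, inconclusive results apart.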 What follows is part of a selection rich in actives, with near analogues and random picks from the rest.
Please answer using one outcome listed in YES = active, NO = inactive

Example cases with answers are listed next.
test_smiles=O=C(Nc1cccs1)N1CCC(c2nnc(-c3ccc(F)cc3)o2)CC1 discrete_label=NO
test_smiles=Cc1cccc(Cn2c(=O)c3c(nc4n(-c5ccccc5O)c(C)c(C)n34)n(C)c2=O)c1 discrete_label=YES
test_smiles=CN(C)S(=O)(=O)c1ccc(C(=O)Nc2ccc3c(c2)N(C(=O)c2ccco2)CC3)cc1 discrete_label=NO
test_smiles=COc1ccc(OC)c2sc(N(CCN3CCOCC3)C(=O)c3cccs3)nc12 discrete_label=NO
test_smiles=COc1ccc(OC)c2sc(N(CCN3CCOCC3)C(=O)c3cccc(F)c3)nc12 discrete_label=NO

## Task Please state the recorded outcome for this compound: "COCCNC(=O)Cn1cc(-c2nnc(C)o2)c2ccccc21"
## Result NO

## Task Proceed to "COc1ccc(Cl)c2sc(N(CCCN3CCOCC3)C(=O)c3ccno3)nc12"
## Result YES

## Task Proceed to "CCCOc1ccc(N2CCN(C(=O)COc3ccc4ccccc4c3)CC2)nn1"
## Result NO

## Task Proceed to "O=C1/C(=C/c2cccnc2)SC(=S)N1c1ccc2c(c1)OCCO2"
## Result NO

## Task Proceed to "COC(=O)Cn1c(=O)c2c(nc3n(-c4ccccc4C)c(C)c(C)n23)n(C)c1=O"
## Result NO

====

Recorded glutamate response, % of max, one value per entry.
# System Tested: Voltage-dependent calcium channel gamma-2 subunit (Mus musculus) + Glutamate receptor 2 (Rattus norvegicus) (UniProt O88602+P19491)
# Method Description: modulators of GluA2-stargazin AMPA receptor complexes, primary screen, cell-based, membrane potential dye (AID 1259245)
# Run Conditions: HEK293 GluA2+stargazin, membrane potential dye (FDSS), glutamate EC50, at 30 µM, hits were called plate by plate, in both directions
Screen size: about 40,000 compounds; about 1,400 (3.5%) were called active. The sample as a whole holds a higher share of actives than the screen did.
// units = %; emit number, no label

Take a look at these entries with their results.
compound=COCCn1c(=NC(=O)c2cc(C)no2)sc2cc(SC)ccc21 assay_readout="glutamate response, % of max" endpoint_result=31.8
compound=COc1ccc(OC)c(-c2ccc(=O)n(CC(=O)N3CCOCC3)n2)c1 assay_readout="glutamate response, % of max" endpoint_result=62.3
compound=Cc1cc(C)c2c(n1)sc1c(=O)n(CC(=O)Nc3ccc(F)cc3F)cnc12 assay_readout="glutamate response, % of max" endpoint_result=45.2
compound=COc1ccc(S(=O)(=O)Nc2ccc3c(c2)CCCN3S(C)(=O)=O)cc1C assay_readout="glutamate response, % of max" endpoint_result=41
compound=COc1ccc(CN(CC(=O)N(C)c2ccccc2)S(=O)(=O)c2cccnc2)cc1 assay_readout="glutamate response, % of max" endpoint_result=30.9
compound=CCS(=O)(=O)N1CCCc2ccc(NS(=O)(=O)c3cc(Cl)ccc3OC)cc21 assay_readout="glutamate response, % of max" endpoint_result=44.4
compound=CCOc1ccc(C(=O)Nc2sc3c(c2-c2nc4ccccc4s2)CCN(C)C3)cc1 assay_readout="glutamate response, % of max" endpoint_result=34.3
compound="Cc1nn(C2CCS(=O)(=O)C2)c2nc(-c3ccccc3)cc(C(=O)Nc3ccc(F)cc3F)c12 (stereo unspecified)" assay_readout="glutamate response, % of max" endpoint_result=43
compound="CC1CCN(CC(O)COc2ccc(C(=O)c3ccccc3)cc2)CC1 (stereo unspecified)" assay_readout="glutamate response, % of max" endpoint_result=53.3
compound=COc1cc([N+](=O)[O-])ccc1NC(=O)c1ccccc1NS(=O)(=O)c1ccccc1 assay_readout="glutamate response, % of max" endpoint_result=22.1

## Task GET /values?readout=glutamate response, % of max&item= "COc1cn(CC(=O)Nc2ccc(NC(C)=O)cc2)c(CSc2ncccn2)cc1=O"
## Result 26.3

## Task Proceed to "CCOCCn1c(=NC(=O)c2cc(C)no2)sc2cc(OC)c(OC)cc21"
## Result 27.5

## Task Proceed to "CCS(=O)(=O)N1CCCc2ccc(NS(=O)(=O)c3cc(C)c(C)cc3OC)cc21"
## Result 43.6

## Task Proceed to "CN1CCc2c(sc(NC(=O)c3ccc(Br)cc3)c2-c2nc3ccccc3s2)C1"
## Result 53.9

## Task Proceed to "CC(=O)c1ccc(C(=O)Nc2sc3c(c2-c2nc4ccccc4s2)CCN(C)C3)cc1"
## Result 65.6

## Task Proceed to "Cc1cc(C)c2c(n1)sc1c(=O)n(CC(=O)Nc3ccccc3Br)cnc12"
## Result 47

## Task Proceed to O=S(=O)(NCC(O)c1ccsc1)c1cccs1 (stereo unspecified)
## Result 47.4

## Task Proceed to "O=C(CCCc1ccccc1)N1CCN(c2ccc3nnc(-c4ccco4)n3n2)CC1"
## Result 48.1
